Cited source for all entries: PubChem BioAssay AID485314

# assayed-target: DNA polymerase beta (Homo sapiens)
# procedure-text: qHTS Assay for Inhibitors of DNA Polymerase Beta
# details: Pol beta primer extension/strand displacement, fluorescence kinetic; series mostly up to 114 µM
Hit rate of the full screen: of about 340,000 compounds, about 4,500 (1.3%) were called active. Inconclusive results (about 5%) are left out. Calls come from the whole dose curve; as a rule, active = well fitted inhibition curve with a large enough effect; inconclusive = small, poorly fitted or top-dose-only effect, or another doubt; inactive = no such curve, though single readings can be large or run the other way. Shown is part of a subset that was picked to be rich in actives.
One label from this list, please: t for active, f for inactive

Completed entries (count: 2):
Cc1c(C(=O)Nc2cccc(Cl)c2)oc2ccc(S(=O)(=O)N3CCOCC3)cc12: f
COc1ccc(/C=C2\SC(=S)N(CC(=O)NNC(=O)c3ccncc3)C2=O)cc1: f

Query: Could you please tell me the result logged for C=C(C)C(=O)Nc1cccc(C2=NOC3(C2)C[C@H](C(N)=O)N(C(=O)C(c2ccccc2)c2ccccc2)C3)c1 (stereo partly specified) in this assay?
Response: t

Query: Could you please tell me the result logged for COc1cc(OC)cc(C(=O)Nc2c(C(=O)Nc3ccc(F)cc3)oc3ccccc23)c1 in this assay?
Response: f

Query: Could you please tell me the result logged for Cc1ccc(Nc2c(-c3ccc(Cl)cc3)nc3sccn23)c(C)c1 in this assay?
Response: f

Query: Could you please tell me the result logged for C/C=C\C=C\C(=O)N1CC2(CC(c3cccc(NC(=O)/C(C)=C\C)c3)=NO2)C[C@H]1C(N)=O (stereo partly specified) in this assay?
Response: f

Query: Could you please tell me the result logged for Clc1ccc(CSc2nncn3c2cc2occc23)cc1 in this assay?
Response: t

Query: Could you please tell me the result logged for O=C1CCCC(O)=C1N=Nc1ccc2ncsc2c1 in this assay?
Response: t

Query: Could you please tell me the result logged for O=C(CSc1nc2ccccc2nc1Cc1ccccc1)N1CCCCC1 in this assay?
Response: f

Query: Could you please tell me the result logged for O=C(CS(=O)(=O)c1cccc2nsnc12)N1CCN(c2cccc(Cl)c2)CC1 in this assay?
Response: f

Query: Could you please tell me the result logged for COc1cccc(NC(=O)CN2C(=O)c3ccccc3Sc3ncccc32)c1 in this assay?
Response: f

----------
# assayed-target: DNA polymerase beta (Homo sapiens) (UniProt P06746)
# procedure-text: qHTS Assay for Inhibitors of DNA Polymerase Beta
# details: Pol beta primer extension/strand displacement, fluorescence kinetic; series mostly up to 114 µM
The campaign covered roughly 340,000 compounds. About 4,500 (1.3%) were called active. About 5% were inconclusive and are not listed. For the sample, actives were picked, then their nearest neighbours and some compounds at random.
measure-name: outcome

CC(=O)c1sc2nc(SCC(=O)N3CCCCC3)[nH]c(=O)c2c1C: inactive
Cc1cc(F)ccc1NS(=O)(=O)c1ccc(-n2cccn2)cc1: inactive
COc1ccc(-c2nc(SCC(=O)N3CCCCC3C)n[nH]2)cc1 (stereo not drawn): inactive

----------
# assayed-target: DNA polymerase beta (Homo sapiens)
# procedure-text: qHTS Assay for Inhibitors of DNA Polymerase Beta; note: potency is the fitted concentration of half-maximal effect
# details: Pol beta primer extension/strand displacement, fluorescence kinetic; series mostly up to 114 µM
Among all 340,000 compounds or so, about 4,500 (1.3%) were called active. About 5% were inconclusive and are not listed. The list comes from a sample in which actives are over-represented; it also holds close analogues and randomly drawn compounds.
measure-name: Potency

Cc1ccc2cccc(NC(=O)C(C)Oc3ccc(C)c(C)c3)c2n1 (stereo not given): inactive
O=C(CSc1nccn1Cc1ccc(F)cc1)NCc1ccccc1: inactive
CCC(=O)N1CCc2cc(S(=O)(=O)NC(C(=O)Nc3ccc(C(C)=O)cc3)C(C)C)ccc21 (stereo not given): inactive
O=C(Nc1nnc(Cc2ccc(Cl)cc2)s1)c1ccncc1: inactive
COc1cccc(NC(=O)CSc2cc(=O)n(C)c3ccc(Cl)cc23)c1: inactive

Give Potency for each of the items listed below.
1. COCCCNc1nc2c(-c3cccc(C)c3)nnn2c2ccc(Cl)cc12
2. CC(=O)NC1C(Oc2ccc(C=O)cc2)OC(COC(C)=O)C(OC(C)=O)C1OC(C)=O (stereo not given)
3. CCc1ccccc1NC(=O)Cc1ccc(NC(=O)N2CCCCc3ccccc32)cc1
4. COc1ccc(N2CCN(C3=NS(=O)(=O)C(c4cccc(Br)c4)=C3C)CC2)cc1
5. CCc1cccc(OC2OC(CO)C(O)C(O)C2NC(C)=O)c1 (stereo not given)

Response:
1. 35.5 µM (active)
2. 39.8 µM (active)
3. inactive
4. inactive
5. inactive
